- Tested on: MCF7
- protocol.description: Cytotoxicity against human MCF7 cells after 72 hrs by MTT assay
- Format: functional, cell-based
- condition.set: MCF7, 72 h
recorded.endpoint: IC50

compound: O=C(Nc1ccc(-c2ccnc(N3CCOCC3)n2)cc1)Nc1ccc(Cl)c(-c2cccnc2)c1
IC50: 16.8 µM

Requested field: IC50. Item: CS(=O)(=O)c1ccc(C(=O)Nc2ccc(Cl)c(-c3ccccn3)c2)c(Cl)c1 [VISMODEGIB]
> 50 µM

Requested field: IC50. Item: `O=C(Nc1ccc(-c2cc(N3CCOCC3)nc(N3CCOCC3)n2)cc1)Nc1ccc(Cl)c(-c2cccnc2)c1`
9.15 µM

Requested field: IC50. Item: `O=C(Nc1ccc(-c2nc(N3CCOCC3)nc(N3CCOCC3)n2)cc1)Nc1ccc(Cl)c(-c2ccncc2)c1`
7.61 µM
